Assay: chemical genetic growth profiling, strain panel (AID 1159580);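 note: tested at 20 µM; growth read once vehicle control cultures reached saturation at 30 °C; 1 = growth at the plate median or of vehicle wells; lower values mean less growth of the strain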
Settings: S. cerevisiae deletion strains, growth OD, locus YLL041C, strain sdh2, hits give low values
In all, about 5,500 compounds went through this assay and about 2,000 (36%) were called active. Roughly 18% stayed inconclusive and do not appear here. The list shows a part of the results.
Consider the cut-off 1. If the recorded normalized growth is strictly smaller, the label is Condition met; if not, the label is Condition not met.

| Compound | Cat |
| --- | --- |
| CCC(=O)OCC(=O)C1(OC(=O)CC)C(C)CC2C3C(Cl)CC4=CC(=O)C=CC4(C)C3C(O)CC21C (stereo unspecified) | Condition not met |

Kindly consider the entry below.
Problem: For "CC(C)c1cccc(O)c(=O)c1" , is the recorded normalized growth below the cut-off of 1?
Solution: Condition met

###

List of normalized growth values.
Assay: chemical genetic growth profiling, strain panel (AID 1159580)
Conditions: S. cerevisiae deletion strains, growth OD, locus YNL307C, strain MCK1, hits give low values
The campaign covered roughly 5,500 compounds. About 2,000 (36%) were called active. Inconclusive results (about 18%) are left out. Some of the results follow.
Reply with the value as a number alone.

Consider the worked cases shown below.
| Compound | Readout kind | Readout value |
| --- | --- | --- |
| NC(=O)c1ccc([N+](=O)[O-])cc1Cl | normalized growth | 0.989 |
| NC[C@@H]1O[C@H](O[C@@H]2[C@@H](CO)OC(O[C@@H]3[C@@H](O)[C@H](N)C[C@H](N)[C@H]3O[C@H]3O[C@H](CO)[C@@H](O)[C@H](O)[C@H]3N)[C@@H]2O)[C@H](N)[C@@H](O)[C@@H]1O (stereo partly drawn) | normalized growth | 0.983 |

// moving on: another record for normalized growth
Problem: Sample "CN(C)CC[C@H](c1ccc(Cl)cc1)c1ccccn1" — what was its normalized growth?
Solution: 1

###

Listed here are molecules together with their documented normalized growth.
Experiment: chemical genetic growth profiling, strain panel (AID 1159580)
Conditions: S. cerevisiae deletion strains, growth OD, locus YPL051W, strain arl3, hits give low values
Hit rate of the full screen: of about 5,500 compounds, about 2,000 (36%) were called active. Inconclusive results (about 18%) are left out. This is one part of the list.
I'd appreciate a reply containing only the number, no unit.

| Molecule | normalized growth |
| --- | --- |
| CCC(=O)O[C@]1(C(=O)CCl)[C@@H](C)CC2C3CCC4=CC(=O)C=C[C@]4(C)[C@@]3(F)[C@@H](O)C[C@@]21C (some centres undefined) | 1.02 |
| C[N+]1(C)C[C@H](O)[C@H](C(=O)[O-])C1 | 1.02 |
| COC(=O)C(N)CS (centres undefined) | 1.01 |
| CCC(=O)OCC(=O)[C@@]1(OC(=O)CC)[C@@H](C)CC2C3CCC4=CC(=O)C=C[C@]4(C)C3(F)[C@@H](O)C[C@@]21C (some centres undefined) | 1 |
| CNC[C@H](O)c1cccc(O)c1 | 0.973 |

Problem: GET /values?readout=normalized growth&item= "NC(=O)c1ccccc1O"
Solution: 1.01

Problem: Another: CC1(C)O[C@@H]2CC3C4C[C@H](F)C5=CC(=O)CC[C@]5(C)C4[C@@H](O)C[C@]3(C)[C@]2(C(=O)CO)O1 (some centres undefined)
Solution: 1.01

###

Assay: chemical genetic growth profiling, strain panel (AID 1159580)
Details: S. cerevisiae deletion strains, growth OD, locus YDR392W, strain spt3, hits give low values
Screen size: about 5,500 compounds; about 2,000 (36%) were called active. Roughly 18% stayed inconclusive and do not appear here. The list shows a part of the results.
Readout kind: normalized growth
Format: numeric value only, no unit, no commentary.

Solved cases (5 shown):
| Molecule | Readout value |
| --- | --- |
| Cc1cc(N)c2ccccc2[n+]1CCCCCCCCCC[n+]1c(C)cc(N)c2ccccc21 | 0.104 |
| O=c1c(-c2ccc(O)cc2)coc2c(C3O[C@H](CO)[C@@H](O)[C@H](O)[C@H]3O)c(O)ccc12 (stereo not given in full) | 0.876 |
| CC(=O)O[C@@H]1c2c(ccc3ccc(=O)oc23)OC(C)(C)[C@@H]1OC(=O)CC(C)C | 0.591 |
| O=C(/C=C(\O)c1ccccc1)c1ccccc1O | 0.71 |
| COC1=CC(C)[C@@H]2C[C@H]3OC(=O)C[C@H]4C(C)=C(OC)C(=O)C([C@@]34C)[C@@]2(C)C1=O (stereo not given in full) | 0.88 |

Problem: Look up normalized growth for this molecule: "CC(C)Nc1nc(Cl)nc(NC(C)C)n1"
Solution: 0.996

Problem: Same thing, different molecule: CC(C)(C)NCC(O)COc1cccc2c1C[C@H](O)[C@H](O)C2 (stereo not given in full)
Solution: 1.01

Problem: Also need CC(=O)OC1CC[C@@]2(C)C(CCC3C2CC[C@]2(C)C(C4=CC(=O)OC4)C(OC(C)=O)CC32O)C1 (stereo not given in full) , thanks.
Solution: 1.01

Problem: Quick one: "CC[C@@]1(O)C(=O)OCc2c1cc1n(c2=O)Cc2cc3cc(O)ccc3nc2-1"
Solution: 0.976

Problem: And the next one, "CCC(=O)NCC[C@@H]1CCc2ccc3c(c21)CCO3" ?
Solution: 0.988

Problem: What about "CN[C@H]1CC[C@@H](c2ccc(Cl)c(Cl)c2)c2ccccc21" ?
Solution: 0.939

###

Test: chemical genetic growth profiling, strain panel (AID 1159580);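 note: tested at 20 µM; growth read once vehicle control cultures reached saturation at 30 °C; 1 = growth at the plate median or of vehicle wells; lower values mean less growth of the strain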
Details: S. cerevisiae deletion strains, growth OD, locus YLL001W, strain dnm1, hits give low values
About 2,000 (36%) of roughly 5,500 compounds were called active. Not shown: some 18% with an inconclusive outcome. Some of the results follow.
Readout kind: normalized growth
The answer should be written as a number, with no unit following it.

| Compound | Readout value |
| --- | --- |
| COc1ccc(-c2cc(=O)c3c(OC)c(OC)c(OC)c(OC)c3o2)cc1OC | 0.996 |

Problem: What normalized growth value was documented for this compound, CCC(=O)OCC(=O)[C@@]1(OC(=O)CC)[C@@H](C)CC2C3CCC4=CC(=O)C=C[C@]4(C)C3(F)[C@@H](O)C[C@@]21C (stereo not given in full) ?
Solution: 1.01

Problem: Again, but for "CN(C)CC[C@H](c1ccc(Cl)cc1)c1ccccn1"
Solution: 0.991

Problem: // query: "NCCCC(O)(P(=O)(O)O)P(=O)(O)O"
Solution: 0.987

Problem: Please give the result for "O=C(CCCN1CCN(c2ccccn2)CC1)c1ccc(F)cc1" too.
Solution: 0.975

Problem: # iterate: C[C@@H](CO)NC(=O)C1C=C2c3cccc4[nH]cc(c34)C[C@H]2N(C)C1 (stereo not given in full)
Solution: 1.04

Problem: // next record COP(N)(=O)SC (stereo not given)
Solution: 0.981

Problem: // query: CC(C)=CC1C(CO)C1(C)C (stereo not given)
Solution: 1.03

###

Form field: normalized growth (one value per entry).
Test: chemical genetic growth profiling, strain panel (AID 1159580);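 note: tested at 20 µM; growth read once vehicle control cultures reached saturation at 30 °C; 1 = growth at the plate median or of vehicle wells; lower values mean less growth of the strain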
Conditions: S. cerevisiae deletion strains, growth OD, locus YGL248W, strain PDE1, hits give low values
Among all 5,500 compounds or so, about 2,000 (36%) were called active. Roughly 18% stayed inconclusive and do not appear here. This is one part of the list.

Example entries begin here.
| Compound | normalized growth |
| --- | --- |
| CC1(C)C(=O)CC[C@@]2(C)C1C[C@@H](O)[C@@]1(C)C3=CC(=O)O[C@@H](c4ccoc4)[C@]3(C)CCC21 (stereo partly specified) | 1.03 (inactive) |
| C[C@@H]1CC[C@@]23CCC4(C)[C@@](C=CC5[C@@]6(C)CCC(=O)C(C)(C)C6CC[C@]54C)(OC2=O)C3[C@H]1C (stereo partly specified) | 1.02 (inactive) |
| CCC(=O)OCC(=O)C1(OC(=O)CC)C(C)CC2C3CCC4=CC(=O)C=CC4(C)C3(Cl)C(O)CC21C (stereo unspecified) | 1.02 (inactive) |
| CC(=O)O[C@@H]1CC2C(C)(CC[C@H](O)C2(C)C)C2CC[C@]3(C)C(=CC(=O)O[C@H]3c3ccoc3)C21C (stereo partly specified) | 1 (inactive) |
| CCCCC(=O)O[C@]1(C(=O)CO)[C@@H](C)CC2C3CCC4=CC(=O)C=C[C@]4(C)[C@@]3(F)C(O)C[C@@]21C (stereo partly specified) | 0.962 (inactive) |

Problem: Record request: normalized growth value, item CO[C@@H]1C[C@H](O[C@H]2CC[C@]3(C)C4CC[C@]5(C)[C@@H](C6=CC(=O)OC6)CC[C@]5(O)[C@@H]4CC[C@]3(O)C2)O[C@H](C)[C@@H]1O (stereo partly specified)
Solution: 1.02 (inactive)

###

Assay: chemical genetic growth profiling, strain panel (AID 1159580);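 note: tested at 20 µM; growth read once vehicle control cultures reached saturation at 30 °C; 1 = growth at the plate median or of vehicle wells; lower values mean less growth of the strain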
Conditions: S. cerevisiae deletion strains, growth OD, locus YOR184W, strain ser1, hits give low values
The whole screen tested about 5,500 compounds, of which about 2,000 (36%) were called active. Another 18% or so got no clear call; they are omitted. Some of the results follow.
hey, just use 1 if measured normalized growth is less than 1, otherwise 0

These solved cases illustrate the format of a correct answer.
| Compound | Cat |
| --- | --- |
| COc1cc(O)c2c(=O)cc(-c3ccc(OC)c(-c4c(O)cc(O)c5c(=O)cc(-c6ccc(O)cc6)oc45)c3)oc2c1 | 1 |
| CC(=O)O[C@@H]1c2c(ccc3ccc(=O)oc23)OC(C)(C)[C@@H]1OC(=O)CC(C)C | 1 |
| CC(=O)N1CCCC1C(=O)O (stereo not drawn) | 0 |

Now, please, on to the next compound.
Problem: Confirm or reject: normalized growth of "Cc1ccc(C(C)C)c(O)c1C(=O)O" lies strictly below 1
Solution: 1
